# system tested: AgrA (Staphylococcus aureus, UniProt P0A0I7)
# Construct: endogenous in cells; host or cells: S. aureus USA300 strain UAMS-1625 carrying a P3-lacZ reporter plasmid
# Sequence (P0A0I7 whole entry): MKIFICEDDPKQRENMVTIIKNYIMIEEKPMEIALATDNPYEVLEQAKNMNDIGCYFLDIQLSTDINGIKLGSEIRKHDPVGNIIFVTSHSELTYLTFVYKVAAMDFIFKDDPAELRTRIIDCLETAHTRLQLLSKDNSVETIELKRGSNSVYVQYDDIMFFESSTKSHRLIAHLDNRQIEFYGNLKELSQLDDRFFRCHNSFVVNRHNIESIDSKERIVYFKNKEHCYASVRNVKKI
# assay text: cell-based
# Parameters: species or system S. aureus
# study conditions: IC50 at 40 mg/mL HSA, LB medium supplemented with human serum albumin 40 mg/mL
Kindly supply the reported IC50 values for the records listed here.

A selection of reference data follows.
> print(dat)
                                   molecule       test.value
1  Cc1ccc(S(=O)(=O)c2nnn3c2[nH]c(=O)c2ccc(N4CCN(CC(=O)N5CCCC6(CCN(C)CC6)C5)CC4)cc23)c(C)c1  15.5 to 77.3 µM
2  CNC(=O)CN1CCN(c2ccc3c(=O)[nH]c4c(S(=O)(=O)c5ccc(C)cc5C)nnn4c3c2)CC1        < 19.6 µM
3  Cc1ccc(S(=O)(=O)c2nnn3c2[nH]c(=O)c2ccc(N4CCN(CC(=O)NCC5CCCC5)CC4)cc23)c(C)c1        < 17.3 µM

Which IC50 reading was recorded for the molecule Cc1ccc(S(=O)(=O)c2nnn3c2[nH]c(=O)c2ccc(N4CCN(CC(=O)N5CCCC(O)C5)CC4)cc23)c(C)c1 (stereo not shown) ? 17.3 to 86.3 µM
